- target.or.system: huCTLA4 (Homo sapiens, UniProt P16410)
- Sequence (P16410 36-223): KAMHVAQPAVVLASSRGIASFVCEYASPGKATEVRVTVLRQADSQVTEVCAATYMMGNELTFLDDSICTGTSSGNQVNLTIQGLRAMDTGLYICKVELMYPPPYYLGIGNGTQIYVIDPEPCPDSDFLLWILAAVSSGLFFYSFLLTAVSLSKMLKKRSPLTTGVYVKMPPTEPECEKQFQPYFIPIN
- assay.notes: Flow binding to CHO cells stably expressing CTLA4
- Parameters: huCTLA4 and huPD-L1, full-length mammalian surface expression constructs were generated; expressed in transfected cells; host or cells: CHO cells, lentiviral transduction, sorted to >98% purity
- measurement.conditions: Table E11; 33.3 nM; listed as WT CD80 ECD-Fc = 1.0
value.kind: CTLA4 Fold change to WT CD80
Give the figure by itself; no unit, no explanation.

- molecule: "T13R/Q33L/E35D/M47V/T62S/V68M/L85M (protein, UniProt P33681 35-288, looked up, variant T13R Q33L E35D M47V T62S V68M L85M) T-lymphocyte activation …: VIHVTKEVKEVARLSCGHNVSVEELAQTRIYWLKDKKMVLTMMSGDVNIWPEYKNRTIFDISNNLSIMILALRPSDEGTYECVVMKYEKDAFKREHLAEVTLSVKADFPTPSISDFEIPTSNIRRIICSTSGGFPEPHLSWLENGEELNAINTTVSQDPETELYAVSSKLDFNMTTNHSFMCLIKYGHLRVNQTFNWNTTKQEHFPDNLLPSWAITLISVNGIFVICCLTYCFAPRCRERRRNERLRRESVRPV"
  result.value: 0.1

Now take the following molecule into account.
Need CTLA4 Fold change to WT CD80 of H18Y/E35D/M38I/M47L/V68M/L85M (protein, UniProt P33681 35-288, looked up, variant H18Y E35D M38I M47L V68M L85M) T-lymphocyte activation …: VIHVTKEVKEVATLSCGYNVSVEELAQTRIYWQKDKKIVLTMMSGDLNIWPEYKNRTIFDITNNLSIMILALRPSDEGTYECVVMKYEKDAFKREHLAEVTLSVKADFPTPSISDFEIPTSNIRRIICSTSGGFPEPHLSWLENGEELNAINTTVSQDPETELYAVSSKLDFNMTTNHSFMCLIKYGHLRVNQTFNWNTTKQEHFPDNLLPSWAITLISVNGIFVICCLTYCFAPRCRERRRNERLRRESVRPV , thanks.
0.1
